- Tested on: DeltatarO mutant
- ASSAY OVERVIEW: S. aureus survival, RN4220 and DeltatarO strains – OD600, teichoic acid synthesis inhibitors, primary screen (AID 463173)
- MEASUREMENT CONDITIONS: S. aureus RN4220 wild type/DeltatarO growth, OD600, 18 h, active compounds read low, screened at 18.75 µg/mL (by protocol)
The whole screen tested about 52,000 compounds, of which about 4,300 (8.3%) were called active. This is one part of a sample in which actives are shown more often than they occur.
EXPERIMENTAL ENDPOINT: survival (%)

1) CCN(c1ccc(Cl)cc1)S(=O)(=O)c1nnc(NC(=O)C(C)C)s1 :: 84
2) CSCCC(NS(=O)(=O)c1ccc2c(c1)oc(=O)n2C)C(=O)NCc1ccc(Cl)cc1 (stereo not given) :: 92
3) Cc1nn(-c2ccc(N3CCOCC3)nn2)c(C)c1CCC(=O)NCc1ccc(Cl)cc1 :: 107
4) CC1CCc2c(sc(NC(=S)NC(=O)c3ccn(C)n3)c2C(N)=O)C1 (stereo not given) :: 99
5) Cc1sc2c(c1C)c(=O)n(CCc1ccccc1)c(=O)n2Cc1ccc(C(C)(C)C)cc1 :: 87
6) CCc1cccc(NC(=O)c2c(C)oc3ncnc(N4CCCCC4)c23)c1 :: 54
7) Oc1cccc(N=Cc2sc(=S)n(C3CCCCC3)c2O)c1 :: 84
8) CCN(CC)S(=O)(=O)c1nnc(NC(=O)c2ccccc2Cl)s1 :: 70
9) CCN(c1cc(C)cc(C)c1)S(=O)(=O)c1nnc(NC(=O)c2ccccc2C)s1 :: 49
10) CCN(c1ccccc1C)S(=O)(=O)c1nnc(NC(=O)c2ccccc2C)s1 :: 15

###

- System: DeltatarO mutant
- ASSAY OVERVIEW: S. aureus survival, RN4220 and DeltatarO strains – OD600, teichoic acid synthesis inhibitors, primary screen (AID 463173)
- MEASUREMENT CONDITIONS: S. aureus RN4220 wild type/DeltatarO growth, OD600, 18 h, screened at 18.75 µg/mL (by protocol)
In all, about 52,000 compounds went through this assay and about 4,300 (8.3%) were called active. Cut-off read from the data, not from the text of the source: active = survival mostly below about 52% (no sharp cut-off); inactive = mostly above about 56%. The sample as a whole holds a higher share of actives than the screen did.
Outcomes: YES = active, NO = inactive

1. CCCN(C(=O)c1c(C)oc2ncnc(N3CCOCC3)c12)c1ccc(Cl)c(Cl)c1 :: NO
2. Cc1oc2ncnc(N3CCCCC3)c2c1C(=O)NCC1CCN(Cc2cccc(F)c2)CC1 :: YES
3. Nc1ncc(Cc2ccccc2)s1 :: NO
4. COC(=O)CCN(C(=O)c1c(C)oc2ncnc(N3CCOCC3)c12)c1ccccc1 :: YES
5. CCC(=O)Nc1ccccc1-c1nc2ccccc2n(CC(=O)Nc2ccc(C)c(C)c2)c1=O :: NO
6. CCC(=O)Nc1ccccc1-c1nc2ccccc2n(CC(=O)c2ccc(C)cc2)c1=O :: NO
7. CCC(=O)Nc1ccc(C)cc1-c1nc2ccccc2n(CC(=O)c2ccc(C)cc2)c1=O :: NO
8. Cc1cccc(CN2CCC(CNC(=O)c3c(C)oc4ncnc(N5CCCCC5)c34)CC2)c1 :: NO
9. CCc1ccccc1N(CC)C(=O)c1c(C)oc2ncnc(N3CCOCC3)c12 :: NO
10. Cc1ccc(CNC(=O)c2c(C)oc3ncnc(N4CCOCC4)c23)cc1 :: YES

This collection of values is drawn from PubChem BioAssay AID463173.
